# collection of pKd values tested on PMMoV CP (Pepper mild mottle virus)
# Sequence (P69509 2-157): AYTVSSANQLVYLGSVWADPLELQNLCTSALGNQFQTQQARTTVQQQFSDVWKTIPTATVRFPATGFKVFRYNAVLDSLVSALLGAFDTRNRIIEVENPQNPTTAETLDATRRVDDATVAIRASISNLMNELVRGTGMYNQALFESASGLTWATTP
Scale: negative log10 of molar concentration, which is what pKd denotes.

Worked cases, answers included:
Input: Tell me reported pKd for CC(=O)OCC1OC(n2cnc3c(N4CCOCC4)ncnc32)C(NS(=O)(=O)c2ccc(C)cc2)C(OC(C)=O)C1OC(C)=O (stereo not drawn) , tested with PMMoV CP (Pepper mild mottle virus).
Output: 3.96

Input: Tell me reported pKd for CC(=O)OCC1OC(n2cnc3c(N4CCOCC4)ncnc32)C(NS(=O)(=O)c2ccc([N+](=O)[O-])cc2)C(OC(C)=O)C1OC(C)=O (stereo not drawn) , tested with PMMoV CP (Pepper mild mottle virus).
Output: 5.82

Further cases:
Input: Tell me reported pKd for CC(=O)OCC1OC(n2cnc3c(N4CCOCC4)nc(Cl)nc32)C(NS(=O)(=O)c2ccc(C)cc2)C(OC(C)=O)C1OC(C)=O (stereo not drawn) , tested with PMMoV CP (Pepper mild mottle virus).
Output: 3.58
